Measured values drawn from patent US20160130226A1 for this set.

# assayed_system: AMPK beta 1 (Homo sapiens, UniProt Q13131+Q9Y478)
# Construct: in-cell-ELISA for phospho-ACC (Acetyl-CoA carboxylase 1) in HepG2 cells (liver); endogenous in cells; host or cells: HepG2 (assignment to the beta 1 column inferred)
# Sequence (Q9Y478 2-270 limits assumed): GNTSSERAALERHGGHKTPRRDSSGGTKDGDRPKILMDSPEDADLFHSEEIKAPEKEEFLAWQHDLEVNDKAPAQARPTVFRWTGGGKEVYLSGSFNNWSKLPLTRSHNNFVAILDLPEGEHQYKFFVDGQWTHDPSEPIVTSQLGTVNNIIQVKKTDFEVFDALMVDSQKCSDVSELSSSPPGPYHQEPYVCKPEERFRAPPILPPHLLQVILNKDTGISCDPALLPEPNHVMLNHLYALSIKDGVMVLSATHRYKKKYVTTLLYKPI
# Sequence (Q13131 whole entry): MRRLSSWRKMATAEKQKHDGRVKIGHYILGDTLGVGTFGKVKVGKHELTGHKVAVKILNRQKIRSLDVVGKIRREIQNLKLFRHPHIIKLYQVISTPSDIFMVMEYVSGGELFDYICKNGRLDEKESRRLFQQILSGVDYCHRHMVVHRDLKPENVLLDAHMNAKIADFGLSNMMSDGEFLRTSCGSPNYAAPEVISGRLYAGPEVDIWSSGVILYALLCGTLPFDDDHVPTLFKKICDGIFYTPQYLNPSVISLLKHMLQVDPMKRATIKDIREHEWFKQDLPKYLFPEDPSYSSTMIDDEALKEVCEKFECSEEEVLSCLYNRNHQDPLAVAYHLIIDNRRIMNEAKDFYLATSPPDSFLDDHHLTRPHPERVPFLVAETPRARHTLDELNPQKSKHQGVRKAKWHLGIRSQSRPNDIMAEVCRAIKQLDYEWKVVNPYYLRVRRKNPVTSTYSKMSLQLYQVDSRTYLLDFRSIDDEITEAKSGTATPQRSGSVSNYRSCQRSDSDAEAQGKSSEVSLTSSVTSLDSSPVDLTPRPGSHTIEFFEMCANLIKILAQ
# Sequence (P54619 whole entry partner): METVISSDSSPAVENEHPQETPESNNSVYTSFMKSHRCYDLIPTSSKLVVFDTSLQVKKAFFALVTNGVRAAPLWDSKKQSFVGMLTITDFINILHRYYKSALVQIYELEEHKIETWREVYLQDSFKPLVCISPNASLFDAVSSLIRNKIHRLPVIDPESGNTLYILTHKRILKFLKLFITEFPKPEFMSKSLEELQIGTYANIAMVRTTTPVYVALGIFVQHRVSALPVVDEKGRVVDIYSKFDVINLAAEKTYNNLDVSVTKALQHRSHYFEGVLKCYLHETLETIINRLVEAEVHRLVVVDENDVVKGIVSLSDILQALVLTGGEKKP
# assay: in-cell-ELISA for phospho-ACC: activation of AMPK, beta 1 (HepG2 cells / C2C12 myotubes)
# Format: cell-based
# conditions_used: 2 h, 10 μM, percentage activation over vehicle control, read-out: Percentage activation of beta 1 at given concentration
endpoint_name: activation at 10 µM (%)

Solved entries:
So what's the measured activation at 10 µM for this one? Cc1ccc(C2CC23C(=O)Nc2cc(Cl)c(-c4ccc(-c5ccccc5)cn4)cc23)cc1C(=O)O (stereo not drawn)
54

So what's the measured activation at 10 µM for this one? Cn1c(C(=O)O)ccc1C1CC12C(=O)Nc1cc(Cl)c(-c3ccc(-c4ccccc4O)cc3)cc12 (stereo not drawn)
42

So what's the measured activation at 10 µM for this one? COc1ccc(C2CC23C(=O)Nc2cc(Cl)c(-c4ccc(-c5ccccc5)cn4)cc23)cc1C(=O)O (stereo not drawn)
17

So what's the measured activation at 10 µM for this one? Cc1ccc(C2CC23C(=O)Nc2cc(F)c(-c4ccc(N5CCOCC5)cc4)cc23)cc1C(=O)O (stereo not drawn)
89

So what's the measured activation at 10 µM for this one? Cc1ccc(C2CC23C(=O)Nc2cc(F)c(-c4ccc(-c5ccccc5O)cc4)cc23)cc1C(=O)O (stereo not drawn)
83

So what's the measured activation at 10 µM for this one? Cn1cc(C2CC23C(=O)Nc2cc(F)c(-c4ccc(-c5ccccc5O)cc4)cc23)cc1C(=O)O (stereo not drawn)
11

So what's the measured activation at 10 µM for this one? CCn1cc(C2CC23C(=O)Nc2cc(Cl)c(-c4ccc(-c5ccccc5O)cc4)cc23)cc1C(=O)O (stereo not drawn)
28

So what's the measured activation at 10 µM for this one? Cc1ccc(C2CC23C(=O)Nc2cc(Cl)c(S(=O)(=O)NC4CCC4)cc23)cc1C(=O)O (stereo not drawn)
10

A. O=C(O)c1ccc(C2CC23C(=O)Nc2cc(Cl)c(-c4ccc(-c5ccncc5)cc4)cc23)cc1 (stereo not drawn)
B. CCN1C(=O)C2(CC2c2ccc(C)c(CC(=O)O)c2)c2cc(-c3ccc(-c4ccncc4)cc3)c(Cl)cc21 (stereo not drawn)
Compare A and B and name the one whose reported activation at 10 µM is smaller. Choose, then provide that item's label.
B

I. CC(C)c1ccc(C2CC23C(=O)Nc2cc(Cl)c(-c4ccc(OCCO)cc4)cc23)cc1C(=O)O (stereo not drawn)
II. Cc1ccc(C2CC23C(=O)Nc2cc(F)c(-c4ccc(-c5ccccc5O)cn4)cc23)cc1C(=O)O (stereo not drawn)
III. Cc1ccc(C2CC23C(=O)Nc2cc(Cl)c(-c4ccc(-c5cccnc5)cc4)cc23)cc1C(=O)O (stereo not drawn)
Would you mind ranking these compounds by ascending activation at 10 µM? Answer by writing out the labels in the requested order.
II, I, III

A. Cc1ccc(C2CC23C(=O)Nc2cc(Cl)c(-c4ccc(N5CCOCC5)cc4)cc23)cc1C(=O)O (stereo not drawn)
B. COc1ccc(C2CC23C(=O)Nc2cc(Cl)c(-c4ccc(-c5ccncc5)cc4)cc23)cc1C(=O)O (stereo not drawn)
Compare A and B and name the one whose reported activation at 10 µM is smaller. Choose, then provide that item's label.
B

P. COc1ccc(C2CC23C(=O)Nc2cc(F)c(-c4ccc(-c5ccccc5O)cc4)cc23)cc1C(=O)O (stereo not drawn)
Q. Cn1ccc2cc(-c3cc4c(cc3F)NC(=O)C43CC3c3cccc(CC(=O)O)c3)ccc21 (stereo not drawn)
R. Cc1ccc(C2CC23C(=O)N(C)c2cc(F)c(-c4ccc(-c5ccccc5O)cc4)cc23)cc1C(=O)O (stereo not drawn)
S. Cc1ccc(C2CC23C(=O)Nc2cc(Cl)c(S(=O)(=O)Nc4ccccc4O)cc23)cc1C(=O)O (stereo not drawn)
T. Cc1ccc(C2CC23C(=O)Nc2cc(Cl)c(-c4ccc(-c5ccccc5O)cn4)cc23)cc1C(=O)O (stereo not drawn)
Would you mind ranking these compounds by ascending activation at 10 µM? Answer by writing out the labels in the requested order.
S, T, P, Q, R

1. Cc1ccc(C2CC23C(=O)Nc2cc(Cl)c(-c4ccc5cc[nH]c5c4)cc23)cc1C(=O)O (stereo not drawn)
2. CC(C)c1ccc(C2CC23C(=O)Nc2cc(Cl)c(-c4ccc(-c5ccccc5O)cn4)cc23)cc1C(=O)O (stereo not drawn)
3. COc1ccc(C2CC23C(=O)Nc2cc(F)c(-c4ccc(-c5ccccc5O)cc4)cc23)cc1CC(=O)O (stereo not drawn)
Order the records so the highest activation at 10 µM appears first and the lowest last. Answer by writing out the labels in the requested order.
2, 1, 3

P. CC(C)c1ccc(C2CC23C(=O)N(C)c2cc(Cl)c(-c4ccc(-c5ncccc5O)cc4)cc23)cc1C(=O)O (stereo not drawn)
Q. Cc1ccc(C2CC23C(=O)N(C)c2cc(Cl)c(-c4ccc(-c5ncccc5O)cc4)cc23)cc1C(=O)O (stereo not drawn)
Hi team, can someone confirm which has the larger activation at 10 µM: P or Q ? Thanks. Choose, then provide that item's label.
P
(P: 112%, Q: 39%)

1. O=C(O)c1cccc(C2CC23C(=O)Nc2cc(F)c(-c4ccc(-c5ccccc5O)cc4)cc23)c1 (stereo not drawn)
2. Cc1ccc(C2CC23C(=O)Nc2cc(Cl)c(-c4ccc(N5CCOCC5)c(F)c4)cc23)cc1C(=O)O (stereo not drawn)
Compare 1 and 2 and name the one whose reported activation at 10 µM is smaller. Choose, then provide that item's label.
2

P. Cc1ccc(C2CC23C(=O)Nc2cc(Cl)c(-c4ccc(-c5ccncc5)cc4)nc23)cc1C(=O)O (stereo not drawn)
Q. CN(C)c1cc(-c2ccc(-c3cc4c(cc3Cl)NC(=O)C43CC3c3cccc(CC(=O)O)c3)cc2)ccn1 (stereo not drawn)
Hi team, can someone confirm which has the larger activation at 10 µM: P or Q ? Thanks. Choose, then provide that item's label.
Q
